Ref: PubChem BioAssay (NCI)

system: LOX IMVI melanoma; assay: NCI-60 one-dose screen, 48 h (100 = growth as untreated, 0 = no growth, -100 = all killed); settings: 10 µM unless noted
About 83,000 compounds went through this panel and 20% of them were active in at least one assay; those are over-represented in the sample as a whole.
Lab note: anything with growth at or over 20% counts as class 1; the rest go in class 0.

>>> cat("CSc1ccc2c(c1)c(CCN)c(C)n2Cc1ccc(Cl)c(Cl)c1")
"class 0"
>>> cat("Cc1c(C(=O)/C=C/Nc2c(Cl)cc(S(N)(=O)=O)cc2Cl)sc2nc3ccccc3n12")
"class 1"
>>> cat("O=C(Nn1c(NCC(=O)N2c3ccccc3Sc3ccccc32)nnc1-c1ccc(O)cc1)c1ccccc1")
"class 1"
>>> cat("CCOC(=O)/C(C#N)=C\\Nc1ccc2ncnc(Nc3ccc(Cl)cc3Cl)c2c1")
"class 1"
>>> cat("CCc1ccc(Oc2c(-c3ccc(OCCc4cccc(C(F)(F)F)c4)cc3O)n[nH]c2C(F)(F)F)cc1")
"class 0"
>>> cat("CCCCCCCCCCCCCCCCCCOc1ccc(CC(=O)OCC[N+]2(C)CCCCC2)cc1")
"class 1"
>>> cat("O=C(Nc1ccc(Br)cc1F)c1cc(Br)ccc1O")
"class 0"
>>> cat("CC(C)n1cnc2c(Nc3cccc(Cl)c3)nc(N[C@H]3CCCC[C@@H]3N)nc21")
"class 1"
>>> cat("N#CC1=C(N)Oc2c(sc3c(Br)cccc23)C1c1ccc([N+](=O)[O-])cc1 (centres undefined)")
"class 0"
>>> cat("c1ccc(Nc2cc(-c3cccnc3)[nH]n2)cc1")
"class 1"
>>> cat("O=[N+]([O-])c1ccccc1NCSc1ccc(Cl)cc1")
"class 1"
>>> cat("COc1cc(CCC[P+](c2ccccc2)(c2ccccc2)c2ccccc2)c(OC)c(OC)c1OC")
"class 1"
>>> cat("CCOC(=O)Nc1ccc(-c2nc(-c3cccc(OC)c3)c(-c3ccnc(Br)c3)[nH]2)cc1")
"class 0"
>>> cat("CCCCOc1nc2ccc(OC)cc2cc1-c1cc(-c2ccc(Cl)cc2)nc(-c2ccc(Cl)cc2)c1")
"class 1"
>>> cat("CCOC(=O)C1=C(N)Oc2c(sc3c(C)cccc23)C1c1ccc(Cl)cc1 (centres undefined)")
"class 1"
>>> cat("CC(=O)CC[C@H]1C(=O)N[C@@H](C(C)C)C(=O)N[C@@H](Cc2cc(O)cc(F)c2)C(=O)N2CCC[C@H](N2)C(=O)O[C@H](/C(C)=C/C=C/C(=O)OC(C)(C)C)C/C=C/C=C/[C@H](O)[C@H](C)[C@H]1O")
"class 1"
>>> cat("CCN(CC)CCNC(=O)c1cn2ncnc(Oc3ccc(NC(=O)Nc4ccc(Cl)c(C(F)(F)F)c4)cc3)c2c1C")
"class 0"
>>> cat("CCOC(=O)NCCc1ccccc1")
"class 1"

* * *

tested on: HOP-62 NSCLC; assay: NCI-60 one-dose screen, 48 h (100 = growth as untreated, 0 = no growth, -100 = all killed); details: 10 µM unless noted
The panel holds about 83,000 compounds, 20% with a hit somewhere; the sample as a whole holds those more often.
We begin with a simple list: items and their reported growth.
MEASUREMENT KIND: growth (%)

>>> numeric_readout("CCc1ccccc1-n1c(N)c(C#N)c(-c2ccc(Cl)cc2)c(C#N)c1=O")
101
>>> numeric_readout("COc1ccc2c(c1OC)C(=O)O[C@H]2[C@H]1c2c(cc3c(c2OC)OCO3)CCN1C")
98.1
>>> numeric_readout("Cc1nc2ccccc2n1CC1C(=O)NC(=O)NC1=O")
105
>>> numeric_readout("CCCCCCN1C(=O)/C(=c2\\sc3n(c2=O)C2C(NN=3)N(CC)C(=O)N2CC)c2ccccc21 (centres undefined)")
-1.75
>>> numeric_readout("CC(=O)N1N=C(c2ccc(Nc3nc(Nc4ccc(F)cc4)nc(Nc4ccc(Cl)cc4)n3)cc2)CC1c1ccc(Cl)cc1 (centres undefined)")
84.1
>>> numeric_readout("O=S(=O)(NCCCNc1cc(-c2c(-c3cccc(O)c3)nc3sccn23)ccn1)c1cccc2ccccc12")
67.2
>>> numeric_readout("COc1cccc(Cc2nn3cc(-c4ccccc4)nc3s2)c1")
95.2
>>> numeric_readout("O=c1ccn(Cc2cn(-c3c4ccccc4nc4ccccc34)nn2)c(=O)[nH]1")
97.7
>>> numeric_readout("CC(=O)CC[C@H]1C(=O)N[C@@H](C(C)C)C(=O)N[C@@H](Cc2cc(O)cc(F)c2)C(=O)N2CCC[C@H](N2)C(=O)O[C@H](/C(C)=C/C=C/C(=O)OC(C)(C)C)C/C=C/C=C/[C@H](O)[C@H](C)[C@H]1O")
44.9
>>> numeric_readout("Clc1ccc2c(c1)N(CCCN1CCCC1)c1ccccc1S2")
56.4
>>> numeric_readout("COc1cc(CCC[P+](c2ccccc2)(c2ccccc2)c2ccccc2)c(OC)c(OC)c1OC")
82.1
>>> numeric_readout("COc1ccc2cc(C(C)C(=O)Nc3ccc(-c4n[nH]c(=S)n4C4CCCCC4)cc3)ccc2c1 (centres undefined)")
84.3
>>> numeric_readout("CC1=C(SCCC(=O)OC(C[Se]C2=C(C)C(=O)c3ccccc3C2=O)C(=O)NC(C)(C)C)C(=O)c2ccccc2C1=O (centres undefined)")
-65.4
>>> numeric_readout("OC(COc1ccccc1)CN1CCN(c2ccc(Cl)cc2)CC1 (centres undefined)")
123
>>> numeric_readout("N[C@@H](Cc1ccccc1)[C@@H](O)C(=O)NCc1ccc(F)cc1")
119
>>> numeric_readout("CN(C(=O)NCc1cccc(F)c1Cl)[C@H](COC(=O)Nc1cc2ccccc2cn1)CC(O)CO (some centres undefined)")
64.8
>>> numeric_readout("CCCCC1CCCC12NC(=O)NC2=O (centres undefined)")
99.3
>>> numeric_readout("COc1ccc(-c2nc3sc(-c4ccccc4)cn3n2)cc1")
50.5
>>> numeric_readout("COc1ccc(-c2cc(-c3ccc(Cl)cc3)c(C#N)c(=O)n2CCCCCC(=O)Nc2ccccc2N)cc1")
41.8

* * *

We begin with a simple list: items and their reported growth.
tested on: RPMI-8226 leukemia; assay: NCI-60 one-dose screen, 48 h (100 = growth as untreated, 0 = no growth, -100 = all killed); details: 10 µM unless noted
The panel holds about 83,000 compounds, 20% with a hit somewhere; the sample as a whole holds those more often.
MEASUREMENT KIND: growth (%)

>>> numeric_readout("CCOC(=O)c1c2c(n(-c3ccc(C#N)cc3)c1-c1ccccc1)C=CCC2")
85.8
>>> numeric_readout("COc1cccc2nc3n(c12)C(c1c(F)cccc1F)SC3 (stereo not given)")
70.4
>>> numeric_readout("C=C1C(=O)O[C@H]2[C@H]1CC/C(COC(=O)C(C)c1ccc(CC(C)C)cc1)=C\\CC[C@@]1(C)O[C@@H]21 (stereo not given in full)")
-23
>>> numeric_readout("C/C(=C\\C(=O)c1ccc(Cl)cc1)c1ccc(Cl)cc1")
75
>>> numeric_readout("COc1ccc(/C=C(\\C#N)n2nnc3c(F)cccc32)cc1")
17.9
>>> numeric_readout("Cc1ccc(-c2nn(C)c(=O)c3noc(-c4ccc(C)cc4)c23)cc1")
20.4
>>> numeric_readout("O=C1COCCN1c1ccc(NCc2cn(C(=O)c3ccc(Cl)cc3)c3ccccc23)cc1")
52.6
>>> numeric_readout("Nc1ccc(Sc2ccc([N+](=O)[O-])c3nonc23)cc1")
79.9
>>> numeric_readout("Cc1ccc(-c2nc3c(c(-c4ccccc4)nn3-c3ccccc3)c(-c3ccc(O)cc3)c2C#N)cc1")
21.4
>>> numeric_readout("COc1cc(C(=O)c2cnc(-c3cccc4[nH]ccc34)[nH]2)cc(OC)c1OC")
15.8

* * *

System: HT29 colon
Assay: NCI-60 one-dose screen, 48 h (100 = growth as untreated, 0 = no growth, -100 = all killed)
Conditions: 10 µM unless noted
Description: Growth inhibition of the HT29 human tumor cell line is measured as a screen for anti-cancer activity. Cells are grown in 96 well plates and exposed to the test compound for 48 hours. Compounds are tested at a single concentration, which is 10^-5 M for most compounds. The reported endpoint is percent growth (GI% or GIPRCNT), where numbers from 0 - 100% represent growth inhibition, and numbers from -100% - 0 represent cell death. For example, a value of 40 represents 60% growth inhibition. […]
Compounds without any hit were thinned out: in the full panel of roughly 83,000, 20% have a hit.
Lab note: anything with growth at or over 40% counts as MET; the rest go in NOT MET.

>>> cat("Cc1ccc2nc(NC(=O)CSc3nc(Cl)c(C#N)c(-c4ccccc4)n3)sc2c1")
"MET"
>>> cat("Nc1nn(C(=O)Nc2ccc(Cc3ccccc3)cc2)c2ccc(Cl)cc12")
"MET"
>>> cat("Cc1[nH]c(C(=O)Nc2ccc(C(=O)N3CCNCC3)cc2OC(C)C)c(Cl)c1Cl")
"NOT MET"
>>> cat("CC(=O)O.CN1[CH-]N(Cc2ccc(C#N)cc2)c2ccccc21.[Ag+]")
"MET"
>>> cat("Cc1ccc(-c2nc(N3CCN(CC(=O)Nc4ccc(Cl)cc4)CC3)c3ccccc3n2)cc1")
"MET"
>>> cat("O=[N+]([O-])c1ccc(Oc2nc(Nc3ccc(O[C@H]4CO[C@H]5[C@@H]4OC[C@@H]5O)c(Cl)c3)ncc2F)c(Cl)c1")
"NOT MET"
>>> cat("CC(C)n1cnc2c(Nc3cccc(Cl)c3)nc(N[C@H]3CCCC[C@@H]3N)nc21")
"NOT MET"
>>> cat("CCOC(=O)c1[nH]c(C)c(C(=O)OCc2ccccc2C#N)c1C")
"NOT MET"
>>> cat("CNCCCNc1nc2ccccc2c2c(=O)c3cc(OC)ccc3sc12")
"NOT MET"
